Source listed as the supplement of paper PMC9112550.

# Test system: Escherichia coli TOP10
# test_description: shrunken log2 fold change of peptide-encoding DNA abundance (4.5 h post-induction vs induction); higher = less antimicrobial activity (less host growth inhibition)
# setup_conditions: time post-induction: 4.5 h; library: site-saturation at positions 5, 18, 19, 20
Decide using shrunken log2 fold change: a value greater than or equal to -0.04 is 1, a smaller one is -1.

Previously resolved entries follow.
>  <seq>
RRIRRRPPRLPRPRPRPTGYPRP

>  <measurement_target>
Escherichia coli TOP10

>  <category>
1

$$$$
>  <seq>
RRIRHRPPRLPRPRPRPTKIPRP

>  <measurement_target>
Escherichia coli TOP10

>  <category>
-1

$$$$
>  <seq>
RRIRPRPPRLPRPRPRPWYNPRP

>  <measurement_target>
Escherichia coli TOP10

>  <category>
-1

$$$$
>  <seq>
RRIRNRPPRLPRPRPRPIHDPRP

>  <measurement_target>
Escherichia coli TOP10

>  <category>
1

$$$$
>  <seq>
RRIRIRPPRLPRPRPRPNITPRP

>  <measurement_target>
Escherichia coli TOP10

>  <category>
-1

$$$$
>  <seq>
RRIRVRPPRLPRPRPRPFLMPRP

>  <measurement_target>
Escherichia coli TOP10

>  <category>
-1

$$$$
>  <seq>
RRIRARPPRLPRPRPRPIKFPRP

>  <measurement_target>
Escherichia coli TOP10

>  <category>
-1

$$$$
>  <seq>
RRIRIRPPRLPRPRPRPNYAPRP

>  <measurement_target>
Escherichia coli TOP10

>  <category>
-1

$$$$
>  <seq>
RRIRGRPPRLPRPRPRPNQSPRP

>  <measurement_target>
Escherichia coli TOP10

>  <category>
1

$$$$
>  <seq>
RRIRGRPPRLPRPRPRPNPMPRP

>  <measurement_target>
Escherichia coli TOP10

>  <category>
1

$$$$

Query block: Does the sequence `RRIRWRPPRLPRPRPRPLPEPRP` have recorded shrunken log2 fold change that is -0.04 or more?
Result block: 1

Query block: Is it the case that `RRIRQRPPRLPRPRPRPFWRPRP` has shrunken log2 fold change reaching or exceeding -0.04?
Result block: -1

Query block: # bool: shrunken log2 fold change of `RRIRPRPPRLPRPRPRPFLVPRP` >= -0.04
Result block: -1

Query block: Assess whether reported shrunken log2 fold change for `RRIRTRPPRLPRPRPRPADCPRP` sits at -0.04 or higher.
Result block: -1

Query block: Decide: is the reported value of shrunken log2 fold change for `RRIRRRPPRLPRPRPRPRACPRP` equal to or greater than -0.04?
Result block: 1

* * *

Quick reference for shrunken log2 fold change among some sequences
# Tested on: Escherichia coli TOP10;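 further: peptides expressed intracellularly from a pBAD plasmid library in pooled LB shake-flask culture, induced with 0.3% L-arabinose, DNA abundance read by NGS, three biological replicates, DESeq2 with apeglm shrinkage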
# test_description: shrunken log2 fold change of peptide-encoding DNA abundance (4.5 h post-induction vs induction); higher = less antimicrobial activity (less host growth inhibition)
# setup_conditions: time post-induction: 4.5 h; library: site-saturation at positions 5, 18, 19, 20
# respond with the number and nothing more

>  <seq>
RRIRFRPPRLPRPRPRPANIPRP

>  <reported>
-0.0774

$$$$
>  <seq>
RRIRKRPPRLPRPRPRPIECPRP

>  <reported>
-0.0298

$$$$
>  <seq>
RRIRSRPPRLPRPRPRPGTYPRP

>  <reported>
-1.16

$$$$

Query block: Requested field: shrunken log2 fold change. Item: `RRIRARPPRLPRPRPRPMIRPRP`
Result block: -0.388

Query block: Fill in: shrunken log2 fold change of `RRIRRRPPRLPRPRPRPVDAPRP` is ___
Result block: 0.804

Query block: Quick one: shrunken log2 fold change for `RRIRQRPPRLPRPRPRPADDPRP` ?
Result block: -0.01

Query block: Query: shrunken log2 fold change; subject: `RRIRQRPPRLPRPRPRPSDGPRP`
Result block: -0.0586

Query block: Entry `RRIRFRPPRLPRPRPRPFISPRP` : reported shrunken log2 fold change = ?
Result block: -0.691
